system: E. coli MurD (Escherichia coli, UniProt P14900)
Sequence (P14900 whole entry): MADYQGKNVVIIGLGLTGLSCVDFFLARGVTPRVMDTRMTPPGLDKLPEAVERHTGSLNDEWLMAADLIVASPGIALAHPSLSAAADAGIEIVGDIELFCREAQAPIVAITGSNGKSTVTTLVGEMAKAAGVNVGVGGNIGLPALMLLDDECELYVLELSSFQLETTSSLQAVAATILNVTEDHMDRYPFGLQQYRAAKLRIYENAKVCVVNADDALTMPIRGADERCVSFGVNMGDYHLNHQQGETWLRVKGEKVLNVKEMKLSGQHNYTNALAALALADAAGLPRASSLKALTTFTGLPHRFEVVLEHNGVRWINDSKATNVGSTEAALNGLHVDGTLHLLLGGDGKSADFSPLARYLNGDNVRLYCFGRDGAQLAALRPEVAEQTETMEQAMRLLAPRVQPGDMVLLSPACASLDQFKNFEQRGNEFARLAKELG
experiment: biochemical
testConditions: 0.25 h, Table S1, PKIS screening; read-out: RA [%] at 100 µM MurD
Values of remaining activity at 100 µM strictly less than 80% map to true (1), and values of at least 80% map to false (0).

O=C1Nc2ccc(I)cc2C1=Cc1cc(Br)c(O)c(Br)c1 [GW305074X] : false (0)

Req: Is remaining activity at 100 µM of COc1cc2ncnc(Nc3ccc4c(cnn4Cc4ccccc4)c3)c2cc1OC [GW282449A] strictly below 80%?
Resp: true (1)

Req: Is remaining activity at 100 µM of COc1cc2ncn(-c3cc(OCc4ccccc4S(C)(=O)=O)c(C#N)s3)c2cc1OC [GSK319347A] strictly below 80%?
Resp: false (0)

Req: Is remaining activity at 100 µM of O=C(Nc1n[nH]c2nc(-c3ccc(O)cc3)c(Br)cc12)C1CC1 [SB-725317] strictly below 80%?
Resp: false (0)

Req: Is remaining activity at 100 µM of Fc1ccc(-c2nn3ccccc3c2-c2ccncc2)cc1 [GW434756X] strictly below 80%?
Resp: true (1)

Req: Is remaining activity at 100 µM of CN(C)C(=O)O[C@H]1CN[C@H](C#Cc2cc3ncnc(Nc4ccc(OCc5cccc(F)c5)c(Cl)c4)c3s2)C1 [GSK182497A] strictly below 80%?
Resp: true (1)

Req: Is remaining activity at 100 µM of COc1cc2c(cc1Nc1nc(Nc3cccc(F)c3C(N)=O)c3cc[nH]c3n1)N(C(=O)CN1CCN(C(C)C)CC1)CC2 [GSK1751853A] strictly below 80%?
Resp: true (1)

Req: Is remaining activity at 100 µM of CCn1cc(-c2ccnc3[nH]ccc23)c(-c2cccc(NC(=O)Nc3ccc(OCc4ccccc4)cc3)c2)n1 [GSK718429A] strictly below 80%?
Resp: false (0)

Req: Is remaining activity at 100 µM of Cc1cc(-c2ccccn2)cc(C)c1/C=C/c1cncc(-c2nn[nH]n2)c1 [GW459057A] strictly below 80%?
Resp: false (0)

Req: Is remaining activity at 100 µM of c1ccc(Cc2nc3ccc(Nc4ncnc5ccccc45)cc3[nH]2)cc1 [GR269666A] strictly below 80%?
Resp: false (0)

Req: Is remaining activity at 100 µM of Fc1ccc(-c2ncn(C3CCNCC3)c2-c2ccnc(Oc3ccc(F)c(F)c3)n2)cc1 [SB-253228] strictly below 80%?
Resp: true (1)

Req: Is remaining activity at 100 µM of COc1ccc(-c2cc3c(N)ncnc3o2)cc1 [GW642138X] strictly below 80%?
Resp: false (0)

----------
system: E. coli MurD (Escherichia coli)
experiment: biochemical
testConditions: 0.25 h, Table S1, PKIS screening; read-out: RA [%] at 100 µM MurD
propertyLabel: remaining activity at 100 µM

NC(=O)c1sc(-n2cnc3ccc(C(F)(F)F)cc32)cc1OCc1ccccc1Br [GW853606X] : 86%
CN(c1ccc(NC(=O)Nc2ccc(OC(F)(F)F)cc2)cc1)c1ccnc(Nc2cccc(S(N)(=O)=O)c2)n1 [GW806742X] : 92%

Req: Sample O=C(O[C@H]1CN[C@H](C#Cc2cc3ncnc(Nc4ccc5c(cnn5Cc5ccccc5)c4)c3s2)C1)N1CCOCC1 [GSK200398A] — what was its remaining activity at 100 µM?
Resp: 61%

Req: Sample CCn1c(-c2nonc2N)nc2c(C#CC(C)(C)O)ncc(OC[C@@H]3CCCN3)c21 [GSK614526A] — what was its remaining activity at 100 µM?
Resp: 89%

Req: Sample CCCN1CCC(c2ccc(Nc3nc(Nc4cc(F)ccc4C(N)=O)c4cc[nH]c4n3)c(OC)c2)CC1 [GSK1326255A] — what was its remaining activity at 100 µM?
Resp: 9%

Req: Sample COc1cc(Nc2ncc(-c3ccccc3)o2)cc(OC)c1 [GW631581B] — what was its remaining activity at 100 µM?
Resp: 79%

Req: Sample CC(C)c1ccc2c(c1)NC(=O)C2=NNc1ccc(S(N)(=O)=O)cc1 [GW300653X] — what was its remaining activity at 100 µM?
Resp: 85%
